Each item that follows carries a reported Cholesterol lowering effect, % (serum total cholesterol vs control group).
# System: serum cholesterol
# test: Serum cholesterol lowering effect in rat having high cholesterol [3-1]
# Format: in vivo, SD-type (Sprague-Dawley) male rat
# condition label: 10 mg/kg, oral, once a day for 5 days, dissolved in saline, Table 12
# unit: % | format: bare number

Input line: Give the reported Cholesterol lowering effect, % (serum total cholesterol vs control group) for CN(C)c1ccc(NC(=O)N(C[C@H]2CC[C@H](CN(C(=O)Nc3ccc(N(C)C)cc3)C3CCCC3)CC2)C2CCCC2)cc1 (system: serum cholesterol).
Output line: 101

Input line: Give the reported Cholesterol lowering effect, % (serum total cholesterol vs control group) for CN(C)c1ccc(NC(=O)N(C[C@H]2CC[C@H](CN(C(=O)Nc3ccc(N(C)C)cc3)C3CCCCCC3)CC2)C2CCCCCC2)cc1 (system: serum cholesterol).
Output line: 99

Input line: Give the reported Cholesterol lowering effect, % (serum total cholesterol vs control group) for CN(C)c1ccc(NC(=O)N(CC(C)(C)C)C[C@H]2CC[C@H](CN(CC(C)(C)C)C(=O)Nc3ccc(N(C)C)cc3)CC2)cc1 (system: serum cholesterol).
Output line: 103

Input line: Give the reported Cholesterol lowering effect, % (serum total cholesterol vs control group) for CN(C)c1ccc(NC(=O)N(C[C@H]2CC[C@@H](CN(C(=O)Nc3ccc(N(C)C)cc3)C3CCCCC3)CC2)C2CCCCC2)cc1 (system: serum cholesterol).
Output line: 102

Input line: Give the reported Cholesterol lowering effect, % (serum total cholesterol vs control group) for CN(C)c1ccc(NC(=O)N(C[C@H]2CCC[C@H](CN(C(=O)Nc3ccc(N(C)C)cc3)C3CCCCCC3)C2)C2CCCCCC2)cc1 (relative stereo) (system: serum cholesterol).
Output line: 82

Input line: Give the reported Cholesterol lowering effect, % (serum total cholesterol vs control group) for CC1CCC(N(C[C@H]2CC[C@H](CN(C(=O)Nc3ccc(N(C)C)cc3)C3CCC(C)CC3)CC2)C(=O)Nc2ccc(N(C)C)cc2)CC1 (relative stereo) (system: serum cholesterol).
Output line: 100

Input line: Give the reported Cholesterol lowering effect, % (serum total cholesterol vs control group) for CN(C)c1ccc(NC(=O)N(Cc2cccc(CN(C(=O)Nc3ccc(N(C)C)cc3)C3CCCCCC3)c2)C2CCCCCC2)cc1 [YM-17E, reference compound] (system: serum cholesterol).
Output line: 91

Input line: Give the reported Cholesterol lowering effect, % (serum total cholesterol vs control group) for CN(C)c1ccc(NC(=O)N(C[C@@H]2CCC[C@H](CN(C(=O)Nc3ccc(N(C)C)cc3)C3CCCCCC3)C2)C2CCCCCC2)cc1 (system: serum cholesterol).
Output line: 91

Input line: Give the reported Cholesterol lowering effect, % (serum total cholesterol vs control group) for CN(C)c1ccc(NC(=O)N(C[C@H]2CC[C@@H](CN(C(=O)Nc3ccc(N(C)C)cc3)C3CCCCCC3)CC2)C2CCCCCC2)cc1 (system: serum cholesterol).
Output line: 107
